B1: TBX5 (parent)
chain: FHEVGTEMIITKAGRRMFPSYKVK

# Variants of: B1
# Assay procedure: protein stability index of a GFP-peptide fusion (GPS, HEK-293T) (PSI 1-6); higher = more stable;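 further: lentivirally expressed fusions sorted by FACS into six bins by GFP to DsRed ratio, PSI derived from sequencing read proportions per bin multiplied by bin number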
# Test parameters: c terminus: a fixed tail appended
Readout type: protein stability index
// no unit string in output, number only

{"Chain": "FHEVGTEMIITKAGRRMFPEYKVK", "protein stability index": 2.02}
{"Chain": "FHEVGTEMIITKVGRRMFPSYKVK", "protein stability index": 2.02}
{"Chain": "FHEPGTEMIITKAGRRMFPSYKVK", "protein stability index": 1.86}
{"Chain": "FHEMGTEMIITKAGRRMFPSYKVK", "protein stability index": 1.6}
{"Chain": "FHEVGTEMIITKAGRIMFPSYKVK", "protein stability index": 1.81}
{"Chain": "FHEVGTEMIITKAGRRMFPSYKNK", "protein stability index": 2.26}

Prompt: Find the recorded protein stability index belonging to FHEVGTEMICTKAGRRMFPSYKVK and report it.
Completion: 2.41

Prompt: Find the recorded protein stability index belonging to FHEVGTLMIITKAGRRMFPSYKVK and report it.
Completion: 1.93

meta.source: the supplement of paper PMC10567573
